Can you tell me Ki for the items I'm about to list?
System Under Test: purified LasB protein from P. aeruginosa (Pseudomonas aeruginosa)
Construct: purchased Merck or Charles River Laboratories
Sequence (P14756 198-498): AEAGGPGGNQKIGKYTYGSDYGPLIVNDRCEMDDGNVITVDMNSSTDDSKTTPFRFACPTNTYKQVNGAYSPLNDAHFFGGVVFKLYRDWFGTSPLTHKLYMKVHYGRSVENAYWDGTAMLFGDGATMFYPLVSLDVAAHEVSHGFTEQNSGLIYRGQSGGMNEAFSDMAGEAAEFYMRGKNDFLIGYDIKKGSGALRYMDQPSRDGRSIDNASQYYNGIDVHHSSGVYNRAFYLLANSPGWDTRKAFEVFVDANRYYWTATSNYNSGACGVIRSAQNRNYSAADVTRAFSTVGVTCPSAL
Assay Comment: Fluorometric assay to determine Ki (Abz-Ala-Gly-Leu-Ala-p-Nitro-Benzyl-Amide substrate)
Type: biochemical

Sample answers from the record:
| Molecule | System Under Test | Ki |
| --- | --- | --- |
| CN1CCN(C(=O)COc2ccc(-c3csc(CNC(=O)C4(CC(=O)O)Cc5ccccc5C4)n3)cc2)CC1 [Example 46] | purified LasB protein from P. aeruginosa (Pseudomonas aeruginosa) | 50 to 200 nM |
| O=C(O)CC1(C(=O)NCc2nc(-c3cnn(CCCN4CCCOCC4)c3)cs2)Cc2ccccc2C1 [Example 109] | purified LasB protein from P. aeruginosa (Pseudomonas aeruginosa) | 50 to 200 nM |
| CN1CCN(C(=O)c2ccc(-c3csc(CNC(=O)C4(CC(=O)O)Cc5ccccc5C4)n3)cc2)CC1 [Example 16] | purified LasB protein from P. aeruginosa (Pseudomonas aeruginosa) | 200 to 10000 nM |
| COc1cc(OCCc2nccn2C)ccc1-c1csc(CNC(=O)C2(CC(=O)O)Cc3ccccc3C2)n1 [Example 85] | purified LasB protein from P. aeruginosa (Pseudomonas aeruginosa) | 50 to 200 nM |
| COc1cc(OCCN2CCN(C(C)=O)CC2)ccc1-c1csc(CNC(=O)C2(CC(=O)O)Cc3ccccc3C2)n1 [Example 88] | purified LasB protein from P. aeruginosa (Pseudomonas aeruginosa) | < 50 nM |
| COc1ccc(S(=O)(=O)N2CCC([N+](C)(C)C)CC2)cc1-c1csc(CNC(=O)C2(CC(=O)[O-])Cc3cc(F)c(F)cc3C2)n1 [Example 126] | purified LasB protein from P. aeruginosa (Pseudomonas aeruginosa) | 50 to 200 nM |

Record Ki per entry; entries follow.
1. COc1cc(OCc2cc[n+](C)cc2)ccc1-c1csc(CNC(=O)C2(CC(=O)[O-])Cc3ccccc3C2)n1 [Example 75]
2. CN1CCN(S(=O)(=O)c2cc(-c3csc(CNC(=O)C4(CC(=O)O)Cc5ccccc5C4)n3)ccc2OCCN2CCOCC2)CC1 [Example 132]
3. CC(=O)N1CCN(CCn2cc(-c3csc(CNC(=O)C4(CC(=O)O)Cc5ccccc5C4)n3)cn2)CC1 [Example 119]
4. CN(C)C1CCN(C(=O)c2ccc(-c3csc(CNC(=O)C4(CC(=O)O)Cc5ccccc5C4)n3)cc2)CC1 [Example 17]
5. C[N+]1(C)CCN(C(=O)COc2ccc(-c3csc(CNC(=O)C4(CC(=O)[O-])Cc5ccccc5C4)n3)cc2)CC1 [Example 47]
6. COc1ccc(-c2csc(CNC(=O)C3(CC(=O)O)Cc4ccccc4C3)n2)cc1 [Example 6]
7. COc1cc(OCCC[N+](C)(C)C)ccc1-c1csc(CNC(=O)C2(CC(=O)[O-])Cc3cc(F)c(F)cc3C2)n1 [Example 81]
8. CC(=O)N1CC[N+](C)(CCCn2cc(-c3csc(CNC(=O)C4(CC(=O)[O-])Cc5ccccc5C4)n3)cn2)CC1 [Example 107]

### Response
["50 to 200 nM", "< 50 nM", "50 to 200 nM", "200 to 10000 nM", "200 to 10000 nM", "50 to 200 nM", "50 to 200 nM", "200 to 10000 nM"]
